Molecular target: Bromodomain adjacent to zinc finger domain protein 2B (Homo sapiens) (UniProt Q9UIF8)
Sequence (Q9UIF8 whole entry, looked up, the tested form may be a part): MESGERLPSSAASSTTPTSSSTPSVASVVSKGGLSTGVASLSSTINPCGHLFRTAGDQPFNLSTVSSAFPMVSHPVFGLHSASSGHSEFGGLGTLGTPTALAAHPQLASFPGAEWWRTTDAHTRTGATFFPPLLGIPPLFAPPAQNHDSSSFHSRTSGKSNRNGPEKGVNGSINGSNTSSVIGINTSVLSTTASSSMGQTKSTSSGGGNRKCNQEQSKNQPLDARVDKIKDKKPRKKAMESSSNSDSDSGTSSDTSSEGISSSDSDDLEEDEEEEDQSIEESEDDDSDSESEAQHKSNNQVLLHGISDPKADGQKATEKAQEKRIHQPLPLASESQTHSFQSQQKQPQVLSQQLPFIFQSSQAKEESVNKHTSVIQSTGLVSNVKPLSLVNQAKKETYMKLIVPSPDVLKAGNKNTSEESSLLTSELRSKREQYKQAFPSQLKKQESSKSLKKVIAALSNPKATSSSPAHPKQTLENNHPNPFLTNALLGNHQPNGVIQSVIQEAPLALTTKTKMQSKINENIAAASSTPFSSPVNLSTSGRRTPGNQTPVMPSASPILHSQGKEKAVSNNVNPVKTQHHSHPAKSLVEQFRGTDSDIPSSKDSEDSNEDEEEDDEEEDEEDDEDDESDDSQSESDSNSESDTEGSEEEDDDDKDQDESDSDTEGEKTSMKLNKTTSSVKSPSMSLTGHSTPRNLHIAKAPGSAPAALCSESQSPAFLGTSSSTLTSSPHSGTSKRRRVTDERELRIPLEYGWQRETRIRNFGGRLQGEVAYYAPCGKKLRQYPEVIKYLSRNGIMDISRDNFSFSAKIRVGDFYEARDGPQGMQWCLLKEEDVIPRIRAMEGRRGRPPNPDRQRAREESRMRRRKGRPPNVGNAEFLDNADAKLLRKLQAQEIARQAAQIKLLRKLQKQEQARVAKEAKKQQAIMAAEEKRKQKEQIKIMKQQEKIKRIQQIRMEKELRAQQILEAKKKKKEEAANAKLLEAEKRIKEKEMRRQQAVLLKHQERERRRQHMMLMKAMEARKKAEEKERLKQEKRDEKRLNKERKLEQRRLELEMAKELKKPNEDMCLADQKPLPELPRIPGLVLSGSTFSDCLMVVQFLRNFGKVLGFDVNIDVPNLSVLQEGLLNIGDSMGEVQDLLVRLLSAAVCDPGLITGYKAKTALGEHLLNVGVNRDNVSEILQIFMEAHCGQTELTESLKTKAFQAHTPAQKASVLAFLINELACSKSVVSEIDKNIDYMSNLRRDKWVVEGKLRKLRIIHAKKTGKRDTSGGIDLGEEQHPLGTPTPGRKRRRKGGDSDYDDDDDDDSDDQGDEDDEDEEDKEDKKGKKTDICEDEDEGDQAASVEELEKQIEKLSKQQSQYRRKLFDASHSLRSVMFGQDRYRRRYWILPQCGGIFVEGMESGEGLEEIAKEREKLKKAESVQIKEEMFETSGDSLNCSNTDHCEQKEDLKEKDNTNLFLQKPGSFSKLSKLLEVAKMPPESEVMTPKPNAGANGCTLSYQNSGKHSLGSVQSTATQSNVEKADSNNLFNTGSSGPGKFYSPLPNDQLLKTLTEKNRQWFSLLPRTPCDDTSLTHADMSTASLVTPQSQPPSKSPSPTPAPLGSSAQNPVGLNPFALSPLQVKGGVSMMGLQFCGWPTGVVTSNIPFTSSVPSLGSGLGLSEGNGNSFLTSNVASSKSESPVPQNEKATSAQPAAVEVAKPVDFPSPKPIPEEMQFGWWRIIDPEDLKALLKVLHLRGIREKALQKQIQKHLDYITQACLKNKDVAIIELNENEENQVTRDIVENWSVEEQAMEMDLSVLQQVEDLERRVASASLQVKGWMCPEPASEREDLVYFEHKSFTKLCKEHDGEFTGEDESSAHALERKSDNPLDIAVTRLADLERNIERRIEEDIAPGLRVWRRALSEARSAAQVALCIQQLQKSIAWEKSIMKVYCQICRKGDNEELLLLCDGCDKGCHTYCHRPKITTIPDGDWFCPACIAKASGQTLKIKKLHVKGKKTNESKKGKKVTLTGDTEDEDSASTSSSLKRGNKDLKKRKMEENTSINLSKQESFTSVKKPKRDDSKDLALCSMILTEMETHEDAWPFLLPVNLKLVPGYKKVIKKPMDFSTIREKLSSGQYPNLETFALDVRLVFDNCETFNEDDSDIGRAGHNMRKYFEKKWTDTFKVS
Experiment: qHTS Assay for Inhibitors of BAZ2B; also: nearly all actives have a fitted effect of over 60% in size
Details: AlphaScreen BAZ2B-H3K14Ac peptide displacement; series mostly up to 114 µM
Out of some 360,000 compounds screened, about 16,000 (4.4%) were called active. Not shown: some 9% with an inconclusive outcome. Calls follow the shape of the dose curve; as a rule, active = well fitted inhibition curve with a large enough effect; inconclusive = small, poorly fitted or top-dose-only effect; inactive = no such curve, though single readings can be large or run the other way. The entries come from a sample that favours actives as a whole.
Allowed answers: Yes = active, No = inactive

>>> print(df.to_string())
                                 smilesrepr                           targetundertest  labelclass
0  Cc1ccc(Cl)cc1N(C)C(=O)Cn1nc(Cc2cccnc2)c2ccccc2c1=O  Bromodomain adjacent to zinc finger domain protein 2B (Homo sapiens) (UniProt Q9UIF8)          No
1  O=C(NCc1ccc2c(c1)CCN2C(=O)c1ccccc1)Nc1cc(F)ccc1F  Bromodomain adjacent to zinc finger domain protein 2B (Homo sapiens) (UniProt Q9UIF8)          No
2  Cc1ccccc1Cn1nc(C)c(NC(=O)c2cc(-c3ccc(F)cc3)on2)c1C  Bromodomain adjacent to zinc finger domain protein 2B (Homo sapiens) (UniProt Q9UIF8)          No
3  COc1cc(C(=O)NCCS(=O)(=O)N2CCN(c3ccccc3)CC2)cc(OC)c1OC  Bromodomain adjacent to zinc finger domain protein 2B (Homo sapiens) (UniProt Q9UIF8)          No

### Prompt Could you kindly confirm the outcome this assay logged for `Cc1ccc(OCCn2c(CNc3ccccc3C)nc3ccccc32)cc1` ?
### Response No

### Prompt Could you kindly confirm the outcome this assay logged for `O=C(Nc1ccc(F)cc1F)c1cnn(-c2ccc(F)cc2)c1-n1cccc1` ?
### Response No

### Prompt Could you kindly confirm the outcome this assay logged for `N#Cc1nc(-c2cccc3ccccc23)oc1N` ?
### Response No

### Prompt Could you kindly confirm the outcome this assay logged for `COc1cc([N+](=O)[O-])ccc1NC(=S)N1CCN(c2ccccn2)CC1` ?
### Response No

### Prompt Could you kindly confirm the outcome this assay logged for `COCCNC(=O)c1ccc2c(c1)N=C(C)c1cc(C)ccc1S2` ?
### Response No

### Prompt Could you kindly confirm the outcome this assay logged for `O=C(Cc1cccs1)Nc1nnc(SCc2ccc(F)cc2)s1` ?
### Response No

### Prompt Could you kindly confirm the outcome this assay logged for `CC(C)c1ccc(NC(=O)c2cc(S(=O)(=O)N3CCc4ccccc4C3)ccc2F)cc1` ?
### Response No

### Prompt Could you kindly confirm the outcome this assay logged for `Cc1ccccc1CN1CCC(CNC(=O)c2cc3ccc4cccnc4c3[nH]2)CC1` ?
### Response No

### Prompt Could you kindly confirm the outcome this assay logged for `CN=c1scc(-c2cc(OC)ccc2OC)n1/N=C/c1c(C)[nH]c2ccccc12` ?
### Response Yes

* * *

Molecular target: Bromodomain adjacent to zinc finger domain protein 2B (Homo sapiens)
Experiment: qHTS Assay for Inhibitors of BAZ2B; also: nearly all actives have a fitted effect of over 60% in size
Conditions: AlphaScreen BAZ2B-H3K14Ac peptide displacement; series mostly up to 114 µM
Screen size: about 360,000 compounds; about 16,000 (4.4%) were called active. Roughly 9% stayed inconclusive and do not appear here. Calls come from the whole dose curve; as a rule, active = well fitted inhibition curve with a large enough effect; inconclusive = small, poorly fitted or top-dose-only effect; inactive = no such curve, though single readings can be large or run the other way. What follows is part of a selection rich in actives, with near analogues and random picks from the rest.
Allowed answers: active, inactive

### Prompt Could you kindly confirm the outcome this assay logged for `CCOc1ccc(/C=N/NC(=O)CSc2ccccn2)cc1O` ?
### Response inactive

* * *

Molecular target: Bromodomain adjacent to zinc finger domain protein 2B (Homo sapiens) (UniProt Q9UIF8)
Test: qHTS Assay for Inhibitors of BAZ2B; also: nearly all actives have a fitted effect of over 60% in size; also: potency is read from the fitted curve at half-maximal effect
Settings: AlphaScreen BAZ2B-H3K14Ac peptide displacement; series mostly up to 114 µM
In all, about 360,000 compounds went through this assay and about 16,000 (4.4%) were called active. Inconclusive results (about 9%) are left out. Shown is part of a subset that was picked to be rich in actives.
readoutType: Potency

>>> print(df.to_string())
                                   compound  readouttype       resultvalue
0  O=C(COc1ccccc1)NCc1ccc2c(c1)CCN2C(=O)c1ccc(F)cc1      Potency          inactive
1  Cc1ccc(Cn2c(CCCNC(=O)C3CCCCC3)nc3ccccc32)cc1      Potency          inactive
2   O=C(NCCc1ccc(Cl)cc1)c1cccc(N2CCCC2=O)c1      Potency          inactive
3     CCCNC(=O)c1ccc2c(c1)ncn2-c1ccc(C)cc1C      Potency          inactive
4  CCOCCCNC(=O)c1c(NC(=O)Cc2coc3ccc(C)cc23)sc2c1CCC2      Potency          inactive
5  COc1ccc(Cc2nc3ccc(C(=O)NCc4ccccc4Cl)cc3o2)cc1      Potency          inactive
6  CC1CCC2CCCCC2N1C(=O)c1cc([N+](=O)[O-])cc([N+](=O)[O-])c1 (stereo unspecified)      Potency  50.1 µM (active)
7  Oc1cc2c(cc1O)CN(C(=S)NCCc1ccc(Cl)cc1)CCC2      Potency  44.7 µM (active)
8  O=C(CS(=O)(=O)c1cccc2nsnc12)N1CCN(c2cccc(Cl)c2)CC1      Potency          inactive
9  COc1ccccc1-c1nnc(NC(=O)c2cccc(N3C(=O)CCC3=O)c2)o1      Potency  25.1 µM (active)

Next:
Consider `COc1ccc(CCNC(=S)N2CCN(S(=O)(=O)c3ccc(Cl)cc3)CC2)cc1` . Its measured Potency is inactive

* * *

Biological target: Bromodomain adjacent to zinc finger domain protein 2B (Homo sapiens) (UniProt Q9UIF8)
Test: qHTS Assay for Inhibitors of BAZ2B; also: nearly all actives have a fitted effect of over 60% in size
Conditions: AlphaScreen BAZ2B-H3K14Ac peptide displacement; series mostly up to 114 µM
In all, about 360,000 compounds went through this assay and about 16,000 (4.4%) were called active. Another 9% or so got no clear call; they are omitted. Calls come from the whole dose curve; as a rule, active = well fitted inhibition curve with a large enough effect; inconclusive = small, poorly fitted or top-dose-only effect; inactive = no such curve, though single readings can be large or run the other way. The entries come from a sample that favours actives as a whole.
Allowed answers: Y for active, N for inactive

### Prompt Could you kindly confirm the outcome this assay logged for `CC(=O)NCCC(=O)Nc1cc(S(=O)(=O)N2CCOCC2)ccc1N1CCOCC1` ?
### Response N

### Prompt Could you kindly confirm the outcome this assay logged for `O=S(=O)(c1ccc2nc(NCc3ccccc3Cl)ccc2c1)N1CCCCC1` ?
### Response N

### Prompt Could you kindly confirm the outcome this assay logged for `Clc1ccc(N/N=C/c2cccs2)nn1` ?
### Response Y

### Prompt Could you kindly confirm the outcome this assay logged for `COc1cccc(N2CCN(S(=O)(=O)c3ccc4c(c3)CCCN4C(C)=O)CC2)c1` ?
### Response N

### Prompt Could you kindly confirm the outcome this assay logged for `Cc1cccn2c(=O)c(C=O)c(Nc3ccc(S(N)(=O)=O)cc3)nc12` ?
### Response N

### Prompt Could you kindly confirm the outcome this assay logged for `CN(C)C(=O)c1nc2ccc(Cl)cn2c1CN1CCN(c2ncccn2)CC1` ?
### Response N

### Prompt Could you kindly confirm the outcome this assay logged for `COc1cccc(-c2nn(-c3ccccc3)cc2/C=C(\C#N)C(=O)NCCCn2ccnc2)c1` ?
### Response Y

### Prompt Could you kindly confirm the outcome this assay logged for `Cc1ccsc1/C=N/Nc1ccc(Cl)nn1` ?
### Response N

* * *

Biological target: Bromodomain adjacent to zinc finger domain protein 2B (Homo sapiens)
Test: qHTS Assay for Inhibitors of BAZ2B; also: nearly all actives have a fitted effect of over 60% in size
Settings: AlphaScreen BAZ2B-H3K14Ac peptide displacement; series mostly up to 114 µM
The whole screen tested about 360,000 compounds, of which about 16,000 (4.4%) were called active. Not shown: some 9% with an inconclusive outcome. Calls follow the shape of the dose curve; as a rule, active = well fitted inhibition curve with a large enough effect; inconclusive = small, poorly fitted or top-dose-only effect; inactive = no such curve, though single readings can be large or run the other way. The sample as a whole holds a higher share of actives than the screen did.
Allowed answers: Yes = active, No = inactive

### Prompt Could you kindly confirm the outcome this assay logged for `CNC(=O)c1cccc2nc3ccccc3nc12` ?
### Response Yes

### Prompt Could you kindly confirm the outcome this assay logged for `CCOC(=O)N1CCc2c(sc3c2c(=O)n(-c2ccc(CC)cc2)c(=O)n3C)C1` ?
### Response No

### Prompt Could you kindly confirm the outcome this assay logged for `COc1ccccc1CNC(=O)CCn1c(=O)c2ccccc2n(CC(=O)Nc2cccc(Cl)c2)c1=O` ?
### Response Yes

### Prompt Could you kindly confirm the outcome this assay logged for `COc1cccc(CNC(=O)c2ccc3c(c2)sc2nc(-c4cccc(OC)c4)cn23)c1` ?
### Response No

### Prompt Could you kindly confirm the outcome this assay logged for `CCN(Cc1ccccc1)C(=O)c1cn(-c2cccc(OC)c2)c(=O)c2ccccc12` ?
### Response No

### Prompt Could you kindly confirm the outcome this assay logged for `COc1ccc(C(=O)/C=C/c2ccc(-c3ccccc3)cc2)cc1CSCC(=O)O` ?
### Response No

### Prompt Could you kindly confirm the outcome this assay logged for `CC(=O)c1ccc(NS(=O)(=O)c2ccc(-c3cc(C)no3)s2)cc1` ?
### Response No

### Prompt Could you kindly confirm the outcome this assay logged for `COc1ccc(/C=C/C(=O)N2CCCC2)cc1OC` ?
### Response No
